- assayed target: T1, purified ErbB2 ECD-polyhistidine-tagged protein (human, UniProt P04626 23-653)
- T1 construct: also called CBECD; purified extracellular domain of ErbB2 with a His tag; not shown: polyhistidine tag
- procedure text: phage ELISA on coated CBECD, BSA as control

- binder: "WTGWCFDDNHSTWGFCTGSF (From an EC-1 biased peptide phage library; also called EBP-17) [02-135 peptide phage clone (ErbB2-binding peptide 17)]"
  binding result: "binds"
- binder: "WTGWCLSPEESTWGFCRSAG (From an EC-1 biased peptide phage library; also called EBP-15) [02-137 peptide phage clone (ErbB2-binding peptide 15)]"
  binding result: "binds"
- binder: "WTGWCLNPEESTWGFCSGYI (From an EC-1 biased peptide phage library; also called EBP-16) [02-140 peptide phage clone (ErbB2-binding peptide 16)]"
  binding result: "binds"
- binder: "WTGWCLNPEESTWGFCRSAG (From an EC-1 biased peptide phage library; also called EBP-14) [02-124 peptide phage clone (ErbB2-binding peptide 14)]"
  binding result: "binds"
